Origin of values: the COVID Moonshot data (paper PMC11187573)

- TARGET OR TEST SYSTEM: SARS-CoV-2 Main Protease (SARS-CoV-2)
- TEST PARAMETERS: 20.0 µM
READOUT LABEL: inhibition

Consider the reported inhibition for these compounds:
- COMPOUND: "Cc1ccc(C)c(NC(=O)[C@H]2CNC(=O)C2)c1 (stereo in doubt)"
  inhibition: "-14.9%"
- COMPOUND: "CCOc1ccccc1OC1CCN(C(=O)c2cc(=O)[nH]c3ccc(F)cc23)C1 (configuration not stated)"
  inhibition: "6.76%"

# inhibition lookup, item NC(=O)C1Cc2ccccc2N(CC(=O)Nc2cnccn2)C1 (configuration not stated)
0.0292%

Any idea what inhibition was measured for "N#Cc1cccc(CN2C(=O)C(=O)c3cccc(Br)c32)c1" ?
-5.42%

Query (compound): "COc1ccc(C(=O)Nc2cccc(/C=C3/C(=O)NC(=O)c4ccccc43)c2)cc1" ; field requested: inhibition
-3.55%

What does the data say about its inhibition? Entry: O=C1CC[C@@H](C(=O)Nc2cccc(Cl)c2)CN1 (stereo in doubt)
-24%

Could you tell me which inhibition is on file for C=CC(=O)N(c1ccc(C(C)(C)C)cc1)C(C(=O)NCC1CCCO1)c1cccnc1 (configuration not stated) ?
70.8%

Query: inhibition; subject: "CC(C)N(C)C(=O)C1CCN(C(=O)CCl)CC1"
17.3%

Recorded inhibition of "Cn1cc(NC(=O)Nc2ccccn2)c2ccccc2c1=O" , please.
-2.17%

----------
- TEST PARAMETERS: 20.0 µM
READOUT LABEL: relative solubility at 20 uM
Answer with the value's number alone.

- COMPOUND: "CN1CCN(C(=O)Cc2c[nH]c3ncccc23)CC1C(=O)NCCc1c[nH]c2ccc(F)cc12 (stereo not given)"
  READOUT LABEL: "relative solubility at 20 uM"
  RECORDED NUMBER: 0.98
- COMPOUND: "COc1cccc(N2CCN(C(=O)c3cc(=O)[nH]c4ccccc34)CC2)c1"
  READOUT LABEL: "relative solubility at 20 uM"
  RECORDED NUMBER: 0.99
- COMPOUND: "O=C(CC(=O)Nc1ccncc1)Nc1ccccc1"
  READOUT LABEL: "relative solubility at 20 uM"
  RECORDED NUMBER: 1
- COMPOUND: "Cc1coc(NC(=O)Nc2cccnc2)n1"
  READOUT LABEL: "relative solubility at 20 uM"
  RECORDED NUMBER: 1

Please find the next compound below.
# lookup: relative solubility at 20 uM of CCC(=O)O[C@@H](OP(=O)(CCCCc1ccccc1)CC(=O)N1C[C@H](C2CCCCC2)C[C@H]1C(=O)O)C(C)C (stereo in doubt)
1

----------
- TEST PARAMETERS: 100.0 µM
Please mark yes if the recorded relative solubility at 100 uM is equal to or greater than 0.9, and no if it falls below.

Hello, I need to know if "O=C(Cn1cccn1)N1CCN(S(=O)(=O)c2cccc(F)c2)CC1" has measured relative solubility at 100 uM not below 0.9. Thanks!
yes

----------
- TEST PARAMETERS: 100.0 µM
READOUT LABEL: relative solubility at 100 uM
Reply with the value as a number alone.

- COMPOUND: "O=C(c1cc(=O)[nH]c2ccc(Cl)cc12)N1CCN(S(=O)(=O)c2ccccc2)CC1"
  relative solubility at 100 uM: 0.93

Could you now consider this next compound?
Data request, read-out relative solubility at 100 uM, for "O=C(c1cc(=O)[nH]c2ccc(Cl)cc12)N1CCN(S(=O)(=O)c2ccccc2F)CC1"
0.91

----------
Entries annotated with measured inhibition
- TARGET OR TEST SYSTEM: SARS-CoV-2 Main Protease (SARS-CoV-2)
- TEST PARAMETERS: 20.0 µM
Numeric only. Scale: %

- COMPOUND: "C=CC(=O)N(C1CCOC1=O)C(C(=O)NC(C)(C)C)c1cccnc1 (stereo not given)"
  UNIT INFO: "%"
  inhibition: -5.08

Recorded inhibition of "CC(C)Cn1cc(NC(=O)NCCCN2CCCC2=O)c2ccccc2c1=O" , please.
-2.54

I am curious: what inhibition value has been reported for C=CC(=O)N(c1cc(C(C)(C)C)on1)C(C(=O)Nc1ccc(OC)cc1C)c1cccnc1 (stereo not given) ?
12.9

May I ask what inhibition has been recorded for "CCOC(=O)Cc1csc(NC(=O)Nc2cn(CC(C)C)c(=O)c3ccccc23)n1" ?
23.2

Need inhibition, item C=CC(=O)N(c1cc(C(C)(C)C)on1)C(C(=O)Nc1cccc(CC)c1)c1cccnc1 (stereo not given)
15.6

----------
This section presents compounds with their documented inhibition values.
- TARGET OR TEST SYSTEM: SARS-CoV-2 Main Protease (SARS-CoV-2) (UniProt P0DTD1)
- TEST PARAMETERS: 20.0 µM
Just the number please, in %, no unit attached.

Please review the following examples before continuing.
- COMPOUND: "CCC(=O)NCC[C@@H]1CCc2ccc3c(c21)CCO3 (stereo in doubt)"
  UNIT INFO: "%"
  RECORDED NUMBER: 0
- COMPOUND: "C=CC(=O)N(c1ccc(C(C)C)nc1)C(C(=O)Nc1ccc(OC)cc1C)c1cccnc1 (stereo not drawn)"
  UNIT INFO: "%"
  RECORDED NUMBER: 0

Consider the compound CS(=O)(=O)N1CCN(C(=O)CCl)CC1c1ccccc1 (stereo not drawn) and give its measured inhibition.
87.5

----------
- TARGET OR TEST SYSTEM: SARS-CoV-2 Main Protease (SARS-CoV-2) (UniProt P0DTD1)
- TEST PARAMETERS: 20.0 µM
Kind request: treat 0.7% as inclusive, so inhibition at 0.7% or higher is MET, anything lower is NOT MET.

Previously resolved entries follow.
- COMPOUND: "O=C(Cc1ccc(Cl)s1)Nc1cccnc1"
  ASSIGNED CATEGORY: "NOT MET"
- COMPOUND: "CS(=O)(=O)Cc1ccc(C(=O)Nc2cccnc2)o1"
  ASSIGNED CATEGORY: "NOT MET"
- COMPOUND: "O=C(NCc1cccnc1)Nc1cccc(OCC(F)F)n1"
  ASSIGNED CATEGORY: "NOT MET"
- COMPOUND: "Cc1ccc(NC(=O)Nc2cccnc2)s1"
  ASSIGNED CATEGORY: "MET"
- COMPOUND: "C=CC(=O)N(c1cc(C(C)(C)C)on1)C(C(=O)Nc1cccc(CC)c1)c1cccnc1 (stereo not given)"
  ASSIGNED CATEGORY: "MET"

Tell me whether inhibition is at least 0.7% here: C=CC(=O)N(c1ccc(C(C)(C)C)cc1)C(C(=O)NC(C)(C)C)c1cncc(OC)c1C (stereo not given)
MET

Could you verify whether the entry "CN(C(=O)Cc1noc2ccccc12)c1ccc(NC(=O)OC(C)(C)C)cc1" shows inhibition of no less than 0.7%?
NOT MET

Please check the record CC(C)c1nc(CN(C)C(=O)N[C@H](C(=O)N[C@@H](Cc2ccccc2)C[C@H](O)[C@H](Cc2ccccc2)NC(=O)OCc2cncs2)C(C)C)cs1 (stereo in doubt) and state if its inhibition is at or above 0.7%.
NOT MET

Is inhibition at least 0.7%? Consider O=C(Cc1ccccc1OC1CCOC1)OCc1cnn[nH]1 (stereo not given)
NOT MET

----------
In this section, each of the compounds is paired with its reported inhibition.
- TARGET OR TEST SYSTEM: SARS-CoV-2 Main Protease (SARS-CoV-2) (UniProt P0DTD1)
- TEST PARAMETERS: 50.0 µM
Number only, in %; omit the unit.

Worked cases, inhibition given:
- COMPOUND: "C=CC(=O)N1CCN(S(=O)(=O)c2ccccc2-c2ccc(Nc3ccc(C#N)cn3)cc2)CC1"
  RECORDED NUMBER: -6.3
- COMPOUND: "CCOCC1CCN(c2ccc(S(N)(=O)=O)cc2)CC1"
  RECORDED NUMBER: 7.41
- COMPOUND: "O=C(Oc1cncc(Cl)c1)c1cccc2[nH]ccc12"
  RECORDED NUMBER: 100
- COMPOUND: "Cc1ccncc1NC(=O)CC(C)(C)NC(=O)c1cccc2[nH]ccc12"
  RECORDED NUMBER: -10.4
- COMPOUND: "Cc1ccncc1Cn1ccccc1=O"
  RECORDED NUMBER: 7.02
- COMPOUND: "CC(C)C[C@@H]1CN(C(=O)CCl)CCN1Cc1cccc(Cl)c1 (stereo in doubt)"
  RECORDED NUMBER: 99.5
- COMPOUND: "O=C(NCCNc1cccnn1)c1ccccc1NS(=O)(=O)c1cc(F)ccc1F"
  RECORDED NUMBER: 7.83
- COMPOUND: "C=CC(=O)N(c1ccc(C(C)(C)C)cc1)C(C(=O)NC(C)(C)C)c1cnc[nH]1 (configuration not stated)"
  RECORDED NUMBER: -23.6

What value of inhibition has been recorded for this entry: "Cc1ccncc1NC(=O)Nc1ccccc1"
21.1

Quick one: inhibition for "N#Cc1cc(CN2CCN(C(=O)CCl)CC2)c2ccccc2c1" ?
93.1

May I ask what inhibition has been recorded for Cc1c(C(=O)NC(CC(=O)O)c2cccc(Cl)c2)cnc2ccccc12 (configuration not stated) ?
6.12

// query inhibition value for entry "NS(=O)(=O)c1ccc(N2CCC(Nc3ccccc3)CC2)cc1"
9.57

Bench note: what inhibition did "COc1cc(Cl)c(C)cc1NC(=O)Nc1cn(CC(C)C)c(=O)c2ccccc12" show?
9.03

Any idea what inhibition was measured for C=CC(=O)N(c1ccc(N(C)C)c(C)c1)C(C(=O)Nc1ccc(Cl)cc1)c1cccnc1 (configuration not stated) ?
12.1

# inhibition lookup, item "Cc1cnc2c(-c3ccc4[nH]ncc4c3)c(-c3ccc(F)cc3)nn2c1"
-1
